testParameters: human
Entries and their Hepatotoxicity (cytolytic) values follow.

{"columns": ["molecule", "Hepatotoxicity (cytolytic)"],
 "data": [
  ["CCc1nc(N)nc(N)c1-c1ccc(Cl)cc1.Nc1ccc(S(=O)(=O)c2ccc(N)cc2)cc1", 1],
  ["CC[C@@]1(O)C(=O)OCc2c1cc1n(c2=O)Cc2cc3c(CN(C)C)c(O)ccc3nc2-1", 0],
  ["CCC1(c2ccccc2)C(=O)NC(=O)N(C)C1=O (stereo not given)", 1],
  ["Cc1ccc(O)c([C@H](CCN(C(C)C)C(C)C)c2ccccc2)c1", 1],
  ["O=C(O)CCNC(=O)c1ccc(/N=N/c2ccc(O)c(C(=O)O)c2)cc1 [BALSALAZIDE]", 0],
  ["CNCCNc1ccc2c3c(nn2CCNCCO)-c2c(O)ccc(O)c2C(=O)c13", 1],
  ["CCS(=O)(=O)CCn1c([N+](=O)[O-])cnc1C", 1],
  ["C[C@@H]1C[C@H]2[C@@H]3CCC4=CC(=O)C=C[C@]4(C)C3=CC[C@]2(C)[C@H]1C(=O)CN1CCN(c2cc(N3CCCC3)nc(N3CCCC3)n2)CC1", 0],
  ["O=C1C(O)=C([C@H]2CC[C@H](c3ccc(Cl)cc3)CC2)C(=O)c2ccccc21", 2],
  ["CC(=O)N[C@@H]1[C@H](Oc2c3cc4cc2Oc2ccc(cc2Cl)[C@@H](O[C@@H]2O[C@@H](CO)[C@@H](O)[C@H](O)[C@@H]2NC(C)=O)[C@@H]2NC(=O)[C@H](NC(=O)[C@@H]4NC(=O)[C@H]4NC(=O)[C@@H](Cc5ccc(c(Cl)c5)O3)NC(=O)[C@H](N)c3ccc(O)c(c3)Oc3cc(O)cc4c3)c3ccc(O)c(c3)-c3c(O[C@H]4O[C@H](CO)[C@@H](O)[C@@H](O)[C@@H]4O)cc(O)cc3[C@@H](C(=O)O)NC2=O)O[C@@H](CO)[C@@H](O)[C@@H]1O", 1],
  ["CCC[C@@H]1C[C@@H](C(=O)N[C@@H]([C@H]2O[C@H](SC)[C@H](O)[C@@H](O)[C@H]2O)[C@@H](C)O)N(C)C1", 0],
  ["COc1c(N2CCNC(C)C2)c(F)cc2c(=O)c(C(=O)O)cn(C3CC3)c12 (stereo not given)", 2],
  ["NC1CCN(c2nc3c(cc2F)c(=O)c(C(=O)O)cn3-c2ccc(F)cc2F)C1 (stereo not given)", 0],
  ["Cc1cc2c(s1)Nc1ccccc1N=C2N1CCN(C)CC1", 2],
  ["CCC[C@@H]1C[C@@H](C(=O)N[C@@H]([C@H]2O[C@H](SC)[C@H](O)[C@@H](O)[C@H]2O)[C@H](C)Cl)N(C)C1", 2],
  ["CCOC(=O)C1=C(C)NC(C)=C(C(=O)OCC)C1c1ccccc1/C=C/C(=O)OC(C)(C)C", 0],
  ["O=C(O)c1cc(/N=N/c2ccc(O)c(C(=O)O)c2)ccc1O", 1],
  ["CN1C(=O)CC(=O)N(c2ccccc2)c2cc(Cl)ccc21", 0],
  ["C=CC1=C(C(=O)O)N2C(=O)[C@@H](NC(=O)/C(=N\\OCC(=O)O)c3csc(N)n3)[C@H]2SC1", 0],
  ["CCCN(CCC)S(=O)(=O)c1ccc(C(=O)O)cc1", 1],
  ["[Li]", 0],
  ["FC(F)OC(F)C(F)(F)F (stereo not given)", 4],
  ["CCCCCCCCCCCCCCCCOP(=O)([O-])OCC[N+](C)(C)C", 3],
  ["Oc1ccc2[nH]cc(CCCCN3CC=C(c4ccccc4)CC3)c2c1", 0],
  ["O=C1NCCN1CCN1CCC(c2cn(-c3ccc(F)cc3)c3ccc(Cl)cc23)CC1", 0]
]}

* * *

testParameters: human
Entries and their Hepatotoxicity (malignant tumour) values follow.

{"columns": ["compound", "Hepatotoxicity (malignant tumour)"],
 "data": [
  ["CN[C@H]1CC[C@@H](c2ccc(Cl)c(Cl)c2)c2ccccc21", 0],
  ["CC(C)(Oc1ccc(Cl)cc1)C(=O)OCCOC(=O)c1cccnc1 [ETOFIBRATE]", 0],
  ["CC(C(=O)O)c1ccc(-c2ccccc2)c(F)c1 (stereo not given)", 0],
  ["CC1CCc2cc(F)cc3c(=O)c(C(=O)O)cn1c23 (stereo not given)", 0],
  ["COC1=C(C(=O)O)N2C(=O)[C@@H](NC(=O)[C@H](N)C3=CCC=CC3)[C@H]2SC1", 0],
  ["NCCCC(N)(C(=O)O)C(F)F (stereo not given)", 0],
  ["CC1=C(/C=C/C(C)=C/C=C/C(C)=C/CO)C(C)(C)CCC1.O=C(O)Cc1cc(I)c(Oc2ccc(O)c(I)c2)c(I)c1", 0],
  ["C[C@@H](O)[C@H]1C(=O)N2C(C(=O)O)=C(S[C@@H]3CN[C@H](C(=O)N(C)C)C3)[C@H](C)[C@H]12", 0],
  ["CN(C)CCn1nnnc1SCC1=C(C(=O)O)N2C(=O)[C@@H](NC(=O)Cc3csc(N)n3)[C@H]2SC1", 0],
  ["COC(=O)C1=C(C)NC(C)=C(C(=O)OC(C)C)C1c1cccc2nonc12 (stereo not given)", 0]
]}

* * *

assayOverview: Highest frequency of moderate liver toxicity observed during clinical trials, expressed as a percentage. [column '% BIOL' in source]
testParameters: human
measuredQuantity: Hepatotoxicity (moderate)

{"columns": ["compound", "measuredQuantity", "result"],
 "data": [
  ["CC(C(=O)O)c1ccc(N2CC=CC2)c(Cl)c1 (stereo unspecified) [PIRPROFEN]", "Hepatotoxicity (moderate)", "2.8%"],
  ["CC[C@H](c1ccc(O)cc1)[C@@H](CC)c1ccc(O)cc1 [HEXESTROL]", "Hepatotoxicity (moderate)", "0%"],
  ["CCn1cc(C(=O)O)c(=O)c2ccc(C)nc21 [NALIDIXIC ACID]", "Hepatotoxicity (moderate)", "0%"],
  ["C[C@H]1C[C@H]2[C@@H]3CCC4=CC(=O)C=C[C@]4(C)[C@@]3(Cl)[C@@H](O)C[C@]2(C)[C@@]1(O)C(=O)CO [BECLOMETHASONE]", "Hepatotoxicity (moderate)", "11.6%"],
  ["C[C@H]1[C@H](OC(=O)CCC(=O)O)O[C@@H]2O[C@@]3(C)CC[C@H]4[C@H](C)CC[C@@H]1[C@@]24OO3 [ARTESUNATE]", "Hepatotoxicity (moderate)", "0%"],
  ["CC(Cc1ccccc1)NCc1ccccc1Cl (stereo unspecified) [CLOBENZOREX]", "Hepatotoxicity (moderate)", "0%"],
  ["OC(CCCN1CCCCC1)(c1ccccc1)c1ccccc1 [DIPHENIDOL]", "Hepatotoxicity (moderate)", "0%"],
  ["O=C(Cc1cccs1)N[C@@H]1C(=O)N2C(C(=O)[O-])=C(C[n+]3ccccc3)CS[C@H]12 [CEPHALORIDINE]", "Hepatotoxicity (moderate)", "0%"],
  ["CN1CCCN(C(c2ccccc2)c2ccc(Cl)cc2)CC1 (stereo unspecified) [HOMOCHLORCYCLIZINE]", "Hepatotoxicity (moderate)", "0%"],
  ["CCCC(=O)O[C@H]1[C@H](C)O[C@@H](O[C@H]2[C@H](N(C)C)[C@@H](O)[C@H](O[C@H]3[C@@H](CC=O)C[C@@H](C)[C@@H](O)/C=C/C=C/C[C@@H](C)OC(=O)C[C@@H](O)[C@@H]3OC)O[C@@H]2C)C[C@@]1(C)OC(=O)CC [ROKITAMYCIN]", "Hepatotoxicity (moderate)", "5%"],
  ["N[C@@H](Cc1ccc(N(CCCl)CCCl)cc1)C(=O)O", "Hepatotoxicity (moderate)", "8%"],
  ["c1ccc2[nH]c(-c3cscn3)nc2c1 [THIABENDAZOLE]", "Hepatotoxicity (moderate)", "36%"],
  ["COc1ccc2c(c1)c(CC(=O)O)c(C)n2C(=O)c1ccc(Cl)cc1 [INDOMETHACIN]", "Hepatotoxicity (moderate)", "25%"],
  ["CC(=O)O[C@@]12CO[C@@H]1C[C@H](O)[C@@]1(C)C(=O)[C@H](O)C3=C(C)[C@@H](OC(=O)[C@H](O)[C@@H](NC(=O)OC(C)(C)C)c4ccccc4)C[C@@](O)([C@@H](OC(=O)c4ccccc4)[C@H]21)C3(C)C.O.O.O [DOCETAXEL]", "Hepatotoxicity (moderate)", "20%"],
  ["Cn1nnc2c(C(N)=O)ncn2c1=O [TEMOZOLOMIDE]", "Hepatotoxicity (moderate)", "47.5%"],
  ["N=C(N)c1ccc(/C=C/c2ccc(C(=N)N)cc2O)cc1 [HYDROXYSTILBAMIDINE]", "Hepatotoxicity (moderate)", "0%"],
  ["COC(=O)C1=C(C#N)NC(C)=C(C(=O)OC(C)C)C1c1cccc([N+](=O)[O-])c1 (stereo unspecified) [NILVADIPINE]", "Hepatotoxicity (moderate)", "6.3%"],
  ["CN(C)CCCN1c2ccccc2Sc2ccccc21 [PROMAZINE]", "Hepatotoxicity (moderate)", "0%"],
  ["CCn1cc(C(=O)O)c(=O)c2cnc(N3CCNCC3)nc21 [PIPEMIDIC ACID]", "Hepatotoxicity (moderate)", "0%"],
  ["CCCCN/C(=C1/C=C(Cl)C=CC1=O)c1ccccc1Cl", "Hepatotoxicity (moderate)", "54.5%"],
  ["CCCNCC(O)COc1ccccc1C(=O)CCc1ccccc1 (stereo unspecified) [PROPAFENONE]", "Hepatotoxicity (moderate)", "10.6%"]
]}
